These measurements were taken from patent US7268212B2.

measured-on: T1, human GPR7 (human)
T1 chain: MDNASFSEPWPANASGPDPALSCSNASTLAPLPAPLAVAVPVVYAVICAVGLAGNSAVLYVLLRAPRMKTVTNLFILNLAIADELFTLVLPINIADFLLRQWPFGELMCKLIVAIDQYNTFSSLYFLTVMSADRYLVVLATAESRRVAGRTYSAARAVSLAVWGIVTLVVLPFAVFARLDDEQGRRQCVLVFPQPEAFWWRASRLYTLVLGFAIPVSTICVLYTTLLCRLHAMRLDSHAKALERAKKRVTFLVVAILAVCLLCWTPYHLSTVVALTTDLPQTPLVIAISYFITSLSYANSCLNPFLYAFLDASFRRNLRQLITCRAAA
assay-text: competition, radioligand
Non-standard residues stand in square brackets, D forms with d. No end group written: not given here. Trp(6-Br) = N[C@@H](Cc1c[nH]c2cc(Br)ccc12)C(=O)O; dTrp(6-Br) = N[C@H](Cc1c[nH]c2cc(Br)ccc12)C(=O)O
property-name: pIC50
Note on units: pIC50 is unitless, being -log10 of a concentration expressed in mol/L.

Query string: # lookup: pIC50 of WYKPAAGSHHYSVGRAAGLLSSFHRFPST [Trp1-rat GPR7L(29)]
Result string: 9.47

Query string: # lookup: pIC50 of [Trp(6-Br)]YKPTAGQGYYSVGRAAGLLSGFHRSPYA [LTrp(6Br)1-bovine GPR7L(29)]
Result string: 9.47

Query string: # lookup: pIC50 of WYKPAAGHSSYSVGRAAGLLSGLRRSPYA (not fully specified (residue 1); printed as D-Trp(6Br)-Tyr-Lys-Pro-Ala-Ala-Gly-His-Ser-Ser-Tyr-Ser-Val-Gly-Arg-Ala-Ala-Gly-Leu-Leu-Ser-Gly-Leu-Arg-Arg-Ser-Pro-Tyr-Ala) [DTrp(6Br)1-human GPR7L(29)]
Result string: 7.89

Query string: # lookup: pIC50 of WYKPTAGQGYYSVGRAAGLLSGFHRSPYA [Trp1-bovine GPR7L(29)]
Result string: 9.51

Query string: # lookup: pIC50 of WYKPAAGHSSYSVGRAAGLLSGL [Trp1-human GPR7L(23)]
Result string: 8.80

Query string: # lookup: pIC50 of WYKPAAGSHHYSVGRAAGLLSSFH [Trp1-rat GPR7L(24)]
Result string: 9.52

Query string: # lookup: pIC50 of [dTrp(6-Br)]YKPTAGQGYYSVGRAAGLLSGFHRSPYA [DTrp(6Br)1-bovine GPR7L(29)]
Result string: 8.21

Query string: # lookup: pIC50 of WYKPAAGHSSYSVGRAAGLLSGLRRSPYA [Trp1-human GPR7L(29)]
Result string: 9.48

Query string: # lookup: pIC50 of WYKHVASPRYHTVGRAAGLLMGL [Trp1-human GPR8L(23)]
Result string: 9.40

Query string: # lookup: pIC50 of [Trp(6-Br)]YKPAAGHSSYSVGRAAGLLSGLRRSPYA [LTrp(6Br)1-human GPR7L(29)]
Result string: 9.49
